Data provenance is paper PMC8010095.

- system tested: M. tuberculosis methionyl-tRNA synthetase (MetRS) (Mycobacterium tuberculosis, UniProt P9WFU5); further: test concentration or dose not given here
- Construct: made in house; host or cells: Escherichia coli
- Sequence (P9WFU5 whole entry): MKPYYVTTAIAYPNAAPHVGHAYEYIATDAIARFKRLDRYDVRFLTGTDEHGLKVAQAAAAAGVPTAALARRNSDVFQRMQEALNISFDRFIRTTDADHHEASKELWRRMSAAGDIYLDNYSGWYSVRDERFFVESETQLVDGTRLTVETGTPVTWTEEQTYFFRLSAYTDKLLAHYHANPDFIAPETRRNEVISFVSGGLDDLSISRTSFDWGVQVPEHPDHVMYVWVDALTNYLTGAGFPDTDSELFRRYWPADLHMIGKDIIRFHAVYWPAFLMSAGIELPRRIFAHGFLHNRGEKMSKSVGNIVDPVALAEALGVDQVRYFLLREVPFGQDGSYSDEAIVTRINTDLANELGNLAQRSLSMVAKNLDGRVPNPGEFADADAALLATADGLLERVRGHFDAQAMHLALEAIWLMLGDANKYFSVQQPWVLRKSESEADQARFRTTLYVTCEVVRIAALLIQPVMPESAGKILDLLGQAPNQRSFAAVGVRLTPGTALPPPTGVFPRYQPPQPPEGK
- test method notes: biochemical
- Type: biochemical
- condition description: recombinant enzyme; mean ± spread (n in brackets); negative = activation
measurement label: MetRS inhibition activity, %

>>> value_observed("Nc1c(-c2nc(-c3ccc(F)cc3)no2)nnn1-c1cccc(C(F)(F)F)c1 [Compound 19]")
"53 ± 0.7 (2) %"
>>> value_observed("Nc1c(-c2nc(-c3ccc(Br)cc3)no2)nnn1-c1ccc(F)cc1 [Compound 32]")
"46 ± 32 (2) %"
>>> value_observed("COc1ccccc1-n1nnc(-c2nc(-c3ccc(Br)cc3)no2)c1N [Compound 35]")
"61 ± 47 (3) %"
>>> value_observed("Cc1cccc(-n2nnc(-c3nc(-c4ccc(F)cc4)no3)c2N)c1 [Compound 18]")
"26 ± 20 (2) %"
>>> value_observed("Nc1c(-c2nc(-c3ccc(F)cc3)no2)nnn1-c1ccc(F)cc1F [Compound 22]")
"59 ± 9 (2) %"
